- tested_on: FXR (Homo sapiens (Human))
- experiment_notes: transient human FXR/Gal4-luciferase reporter assay
- Format: cell-based
- test_conditions: Gal4-hFXR LBD fusion in HEK293 reporter cells; relative to 8 μM GW-4064
quantity_name: EC50 (µM)
Answer in µM, number only, no unit symbol.

Here are 3 compounds together with their reported answers.
Cn1nc(C(=O)O)cc1OCC12CCC(OCc3c(-c4c(Cl)cncc4Cl)noc3C3CC3)(CC1)CC2    0.296
CC(C)Oc1cc(C(=O)O)nc2ccc(/C=C/C34CCC(OCc5c(-c6c(Cl)cncc6Cl)noc5C5CC5)(CC3)CC4)cc12    0.016
O=C(O)Cc1ccc(C#CC23CCC(OCc4c(-c5c(Cl)cncc5Cl)noc4C4CC4)(CC2)CC3)cc1F    0.121

Lab note: next compound to report on.
*Q* Given the compound O=C(O)COCc1ccc(/C=C/C23CCC(OCc4c(-c5c(Cl)cncc5Cl)noc4C4CC4)(CC2)CC3)cc1 , what is its reported EC50?
*A* 0.176

* * *

- tested_on: FXR (Homo sapiens (Human), UniProt Q96RI1)
- Sequence (Q96RI1 262-486): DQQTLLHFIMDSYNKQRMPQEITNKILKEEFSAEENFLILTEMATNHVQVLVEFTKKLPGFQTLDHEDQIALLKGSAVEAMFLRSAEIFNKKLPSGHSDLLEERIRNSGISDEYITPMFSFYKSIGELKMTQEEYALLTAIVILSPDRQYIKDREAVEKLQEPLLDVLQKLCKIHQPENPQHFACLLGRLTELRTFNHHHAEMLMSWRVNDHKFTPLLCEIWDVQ
- experiment_notes: transient human FXR/Gal4-luciferase reporter assay
- Type: cell-based
- test_conditions: Gal4-hFXR LBD fusion in HEK293 reporter cells; relative to 8 μM GW-4064
Listed next: entries and their corresponding pEC50.
pEC50 here: minus log base 10 of the concentration, concentration in moles per litre.

Here are 3 compounds together with their reported answers.
O=C(O)Cc1cccc(/C=C/C23CCC(OCc4c(-c5c(Cl)cncc5Cl)noc4C4CC4)(CC2)CC3)c1    5.69
O=C(O)c1cc2ccc(C#CC34CCC(OCc5c(-c6c(Cl)cncc6Cl)noc5C5CC5)(CC3)CC4)cc2c(N2CC(F)C2)n1    7.92
COCCCOc1nc(C(=O)O)cc2cc(C#CC34CCC(OCc5c(-c6c(Cl)cncc6Cl)noc5C5CC5)(CC3)CC4)ccc12    6.90

Lab note: next compound to report on.
*Q* Given the compound O=C(O)c1cc2ccc(C#CC34CCC(OCc5c(-c6c(Cl)cncc6Cl)noc5C5CC5)(CC3)CC4)cc2c(Nc2ccccc2)n1 , what is its reported pEC50?
*A* 6.73

* * *

- tested_on: FXR (Homo sapiens (Human), UniProt Q96RI1)
- experiment_notes: transient human FXR/Gal4-luciferase reporter assay
- Format: cell-based
- test_conditions: Gal4-hFXR LBD fusion in HEK293 reporter cells; relative to 8 μM GW-4064
The threshold is 200 nM. Values of EC50 beneath it are tagged Criterion met; values meeting or exceeding it are tagged Criterion not met.

*Q* Bench note: check whether O=C(O)c1cc2ccc(C#CC34CCC(OCc5c(-c6c(Cl)cncc6Cl)noc5C5CC5)(CC3)CC4)cc2c(N2CCNCC2)n1 shows EC50 below 200 nM
*A* Criterion not met

*Q* Bench note: check whether O=C(O)c1cc2ccc(C#CC34CCC(OCc5c(-c6c(Cl)cncc6Cl)noc5C5CC5)(CC3)CC4)cc2c(N2CCC2)n1 shows EC50 below 200 nM
*A* Criterion met

*Q* Bench note: check whether Cc1c(OCC23CCC(OCc4c(-c5c(Cl)cncc5Cl)noc4C4CC4)(CC2)CC3)nn(CC2CC2)c1C(=O)O shows EC50 below 200 nM
*A* Criterion met

*Q* Bench note: check whether O=C(O)CCc1ccc(/C=C/C23CCC(OCc4c(-c5c(Cl)cncc5Cl)noc4C4CC4)(CC2)CC3)cc1F shows EC50 below 200 nM
*A* Criterion not met

*Q* Bench note: check whether CCOc1cc(C(=O)O)nc2ccc(/C=C/C34CCC(OCc5c(-c6c(Cl)cncc6Cl)noc5C5CC5)(CC3)CC4)cc12 shows EC50 below 200 nM
*A* Criterion met

*Q* Bench note: check whether COc1ccc(/C=C/C23CCC(OCc4c(-c5c(Cl)cncc5Cl)noc4C4CC4)(CC2)CC3)cc1CCC(=O)O shows EC50 below 200 nM
*A* Criterion not met
